All figures here come from patent US20240400701A1.

- SYSTEM: T1, human AMHRII (anti-Mullerian hormone receptor type 2) (human, UniProt Q16671 18-573)
- T1 construct: whole, on cells; also called AMHR2; human AMHR2
- T1 sequence (looked up): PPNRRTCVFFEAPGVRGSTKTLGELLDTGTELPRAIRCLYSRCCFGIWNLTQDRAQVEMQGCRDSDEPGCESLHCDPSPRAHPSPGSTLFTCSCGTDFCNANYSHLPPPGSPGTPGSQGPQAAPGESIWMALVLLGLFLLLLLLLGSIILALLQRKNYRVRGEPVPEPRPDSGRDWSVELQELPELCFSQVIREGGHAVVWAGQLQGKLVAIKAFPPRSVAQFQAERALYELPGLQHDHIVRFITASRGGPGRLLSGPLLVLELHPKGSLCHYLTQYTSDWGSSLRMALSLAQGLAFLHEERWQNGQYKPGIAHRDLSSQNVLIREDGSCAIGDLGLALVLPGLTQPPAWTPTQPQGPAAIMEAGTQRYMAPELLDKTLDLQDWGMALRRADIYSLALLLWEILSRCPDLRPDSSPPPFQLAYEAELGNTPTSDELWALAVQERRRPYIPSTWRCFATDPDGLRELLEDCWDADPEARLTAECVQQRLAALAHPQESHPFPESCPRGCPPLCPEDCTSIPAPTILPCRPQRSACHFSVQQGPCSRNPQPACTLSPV
- METHOD_SUMMARY: FACS on CHO-K1 cells over-expressing human AMHR2
MEASUREMENT_TYPE: Top (MFI)

- BINDER: "108F3D1E9 H4L4 hIgG1 (antibody, V domains shown, Humanized, human IgG1; also called 108F3D1E9 H4L4 hlgG1) VH: QVQLQESGPGLVKPSETLSLTCTVSGYSITSDFAWNWIRQFPGKGLEWMGYISFSGSTSYNPSLKSRITISRDTSKNQFFLQLSSVTAEDTAVYYCAGSRYSWFAYWGQGTLVTVSS VL: DIVLTQSPSSLSVSVGDRATITCRASESVDTYGNSFMHWYQQKPGQPPKLLIYRASNLESGIPARFSGSGSRTDFTLTISSVQPEDFATYYCQQSNEDPYTFGGGTKLEIK"
  MEASUREMENT_TYPE: "Top (MFI)"
  NUMBER: 70600
- BINDER: "xi108F3D1E9 hIgG1 (antibody, V domains shown, Murine variable domains in human chimeric format, human IgG1; also called xi108F3D1E9 hlgG1; 108F3D1E9 (chimeric)) VH: DVQLQESGPGLVKPSQSLSLTCTVTGYSITSDFAWNWIRQFPGNKLEWMGYINFSGSTSYNPSLKSRISITRDTSKNQFFLQLNSVTTEDTATYYCAGSRYSWFAYWGQGTLVTVSA VL: DIVLTQSPASLAVSLGQRATISCRASESVDTYGNSFMHWYQQKPGQPPKLLIYRASNLESGIPARFSGSGSRTDFTLTINPVEADDVATYYCQQSNEDPYTFGGGTKLEIK"
  MEASUREMENT_TYPE: "Top (MFI)"
  NUMBER: 74400
